src = PubChem BioAssay (NCATS)

Test: Quantitative highthroughput screen to assess conditional lethalithy of SEM cells grown in RPMI1640 with dialyzed fetal bovine serum (RPMI+ds) (AID 1963884); note: potency is the fitted concentration of half-maximal effect; nearly all actives have a fitted effect of over 35% in size
Conditions: SEM B-ALL cells, RPMI+dialyzed FBS, CellTiter-Glo viability, 48 h; series mostly up to 45.8 µM
Results filed as inconclusive are left out. Activity calls are given as the source filed them. Calls come from the whole dose curve; as a rule, active = well fitted cell-killing curve with a large enough effect; inconclusive = small, poorly fitted or top-dose-only effect, or effect the other way; inactive = no such curve, though single readings can be large or run the other way.
ENDPOINT NAME: Potency

[
  {
    "SMILES REPR": "CN1CCN(Cc2ccc(NC(=O)Nc3ccc(Oc4cc(NC(=O)C5CC5)ncn4)cc3)cc2C(F)(F)F)CC1",
    "Potency": "8.3 nM (active)"
  },
  {
    "SMILES REPR": "COc1cc([C@@H]2c3cc4c(cc3[C@H](O)[C@H]3COC(=O)[C@@H]23)OCO4)cc(OC)c1OC",
    "Potency": "264 nM (active)"
  }
]

Next:
Record summary for NC(=O)[C@H]1CCS[C@@H]2C[C@]3(CCCN3C(=O)Cc3ccc(NC(=O)COc4ccc(Cl)cc4Cl)cc3)C(=O)N12 : reported Potency = 1860 nM (active)

====

Experiment: Cellular viability qHTS for adrenocortical cancer (ACC) cell line NCI-H295R (AID 1963990); note: nearly all actives have a fitted effect of over 60% in size
Conditions: CellTiter-Glo ATP luminescence, 48 h; series mostly up to 46.1 µM
Records with an inconclusive call do not appear. Active and inactive are the calls of the source. Calls come from the whole dose curve; as a rule, active = well fitted cell-killing curve with a large enough effect; inconclusive = small, poorly fitted or top-dose-only effect; inactive = flat fitted curve, though single readings scatter.
I would appreciate it if you answered using one of these outcomes: t = active, f = inactive

A selection of reference data follows.
[
  {
    "COMPOUND": "CCC(C(=O)OCCN(CC)CC)c1ccccc1 (stereo unspecified)",
    "CLASS LABEL": "f"
  },
  {
    "COMPOUND": "C[C@@]12CCC[C@H]1[C@@H]1CC[C@H]3C[C@@H](O)CC[C@]3(C)[C@H]1CC2",
    "CLASS LABEL": "f"
  },
  {
    "COMPOUND": "COc1ccc(/C=N/NC(=O)c2ccncc2)cc1OC",
    "CLASS LABEL": "f"
  },
  {
    "COMPOUND": "COCCc1ccc(OCC(O)CNC(C)C)cc1 (stereo unspecified)",
    "CLASS LABEL": "f"
  },
  {
    "COMPOUND": "CNC[C@H](O)c1ccc(O)c(O)c1",
    "CLASS LABEL": "f"
  },
  {
    "COMPOUND": "CC(O)CN(CCN(CC(C)O)CC(C)O)CC(C)O (stereo unspecified)",
    "CLASS LABEL": "f"
  },
  {
    "COMPOUND": "C[C@]12CCC(=O)C=C1[C@@H]1C[C@@H]1[C@H]1[C@@H]3[C@@H]4C[C@@H]4[C@@]4(CCC(=O)O4)[C@@]3(C)CC[C@@H]12",
    "CLASS LABEL": "f"
  },
  {
    "COMPOUND": "Cc1cc2c(s1)Nc1ccccc1N=C2N1CCN(C)CC1",
    "CLASS LABEL": "f"
  },
  {
    "COMPOUND": "CC(=O)Nc1nc(C)c(-c2ccc(Cl)c(S(=O)(=O)NCCO)c2)s1",
    "CLASS LABEL": "t"
  },
  {
    "COMPOUND": "CCN(CC)CCNC(=O)c1c(C)[nH]c(/C=C2/C(=O)Nc3ccc(-c4csc(-c5ccccc5)n4)cc32)c1C",
    "CLASS LABEL": "t"
  }
]

Inquiry: Give the logged outcome of this assay for the following compound: CC1(C)[C@H](C(=O)O)N2C(=O)C[C@H]2S1(=O)=O
Reply text: f

Inquiry: Give the logged outcome of this assay for the following compound: O=C(O)c1cn(C2CC2)c2cc(N3CCNCC3)c(F)cc2c1=O
Reply text: f

Inquiry: Give the logged outcome of this assay for the following compound: COc1ccc(CNc2nc(N(CCO)CCO)nc3c2ncn3C(C)C)cc1
Reply text: t

Inquiry: Give the logged outcome of this assay for the following compound: CC(C)C[C@H](CC(=O)O)C(=O)N[C@@H](Cc1c[nH]c2ccccc12)C(=O)N[C@@H](C)c1ccccc1
Reply text: f

Inquiry: Give the logged outcome of this assay for the following compound: O=C1CC2(CCCC2)CC(=O)N1CCNCC1COc2ccccc2O1 (stereo unspecified)
Reply text: f

Inquiry: Give the logged outcome of this assay for the following compound: CCCC(CCC)C(=O)O
Reply text: f

Inquiry: Give the logged outcome of this assay for the following compound: CCCCCCCC/C=C\CCCCCCCCN
Reply text: f

Inquiry: Give the logged outcome of this assay for the following compound: CC1=NS(=O)(=O)c2cc(Cl)ccc2N1
Reply text: f

Inquiry: Give the logged outcome of this assay for the following compound: COCCOc1cnc2ccn([C@H](C)c3nnc4c(F)cc(-c5cnn(C)c5)cn34)c(=O)c2c1
Reply text: f

Inquiry: Give the logged outcome of this assay for the following compound: CS(=O)(=O)c1ccc(-c2cnc(NCc3ccco3)n3cnnc23)cc1
Reply text: f

Inquiry: Give the logged outcome of this assay for the following compound: COC(=O)N(C)c1c(N)nc(-c2nn(Cc3ccccc3F)c3ncccc23)nc1N
Reply text: f

Inquiry: Give the logged outcome of this assay for the following compound: COc1ccc(OC)c(-c2nnc3ccc(-c4ccc(OC)c(O[C@@H]5CCOC5)c4)nn23)c1
Reply text: t

Inquiry: Give the logged outcome of this assay for the following compound: NS(=O)(=O)c1cc(-c2nn[nH]n2)c(NCc2cccs2)cc1Cl
Reply text: f

====

Assay: Cellular viability qHTS for adrenocortical cancer (ACC) cell line NCI-H295R (AID 1963990); note: nearly all actives have a fitted effect of over 60% in size
Conditions: CellTiter-Glo ATP luminescence, 48 h; series mostly up to 46.1 µM
Records with an inconclusive call do not appear. Calls of active or inactive are those of the source. Calls follow the shape of the dose curve; as a rule, active = well fitted cell-killing curve with a large enough effect; inconclusive = small, poorly fitted or top-dose-only effect; inactive = flat fitted curve, though single readings scatter.
I would appreciate it if you answered using one of these outcomes: label 1 for active, label 0 for inactive

A selection of reference data follows.
[
  {
    "COMPOUND": "O=C(Oc1cccc2cccnc12)c1ccccc1",
    "CLASS LABEL": "label 1"
  },
  {
    "COMPOUND": "Cc1cc(C)cc(NC(=O)Cc2ccc(OC(C)(C)C(=O)O)cc2)c1",
    "CLASS LABEL": "label 0"
  },
  {
    "COMPOUND": "Cc1c(NC(=O)OCC2COCCN2)cn2ncnc(Nc3ccc4c(cnn4Cc4cccc(F)c4)c3)c12 (centres undefined)",
    "CLASS LABEL": "label 1"
  },
  {
    "COMPOUND": "CC(C)(Cc1ccc2ccccc2c1)NC[C@@H](O)COc1cccc(Cl)c1C#N",
    "CLASS LABEL": "label 1"
  },
  {
    "COMPOUND": "CC(C)C1CCC(C(=O)N[C@H](Cc2ccccc2)C(=O)O)CC1 (some centres undefined)",
    "CLASS LABEL": "label 0"
  },
  {
    "COMPOUND": "Cc1cnc(C(=O)NCCc2ccc(S(=O)(=O)NC(=O)NC3CCCCC3)cc2)cn1",
    "CLASS LABEL": "label 0"
  },
  {
    "COMPOUND": "O=c1[nH]sc2cc(Cl)ccc12",
    "CLASS LABEL": "label 1"
  },
  {
    "COMPOUND": "CCc1cc(C(N)=S)ccn1",
    "CLASS LABEL": "label 0"
  }
]

Next compound, please.
Inquiry: Give the logged outcome of this assay for the following compound: C=CC(=O)Nc1cccc(Oc2nc(Nc3ccc(N4CCN(C)CC4)cc3)nc3ccsc23)c1
Reply text: label 1

====

Assay: Cellular viability qHTS for adrenocortical cancer (ACC) cell line SW-13 (AID 1963989);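 note: cells grown in serum-free medium with ITS supplement; % is set by controls: 0 for no effect and ±100 for the full control effect; nearly all actives have a fitted effect of over 65% in size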
Conditions: SW-13 ACC cells viability, CellTiter-Glo, 48 h; stronger effect = lower value
Records with an inconclusive call do not appear.
ENDPOINT NAME: activity (max response) (%)
Answer with a number only, understood to be in %.

Known results for molecules:
[
  {
    "MOLECULE": "CCN(CC)CCNC(C(=O)OCCC(C)C)c1ccccc1 (stereo not given)",
    "UNIT TAG": "%",
    "activity (max response)": -2.2
  },
  {
    "MOLECULE": "CC1Oc2cc(cnc2N)-c2c(nn(C)c2C#N)CN(C)C(=O)c2ccc(F)cc21 (stereo not given)",
    "UNIT TAG": "%",
    "activity (max response)": -20
  },
  {
    "MOLECULE": "C[C@H](Nc1ncnc2nc[nH]c12)c1cc2ccc(F)cc2nc1-c1ccccn1",
    "UNIT TAG": "%",
    "activity (max response)": -8.13
  },
  {
    "MOLECULE": "CN1CCC(N(Cc2cccs2)c2ccccc2)CC1",
    "UNIT TAG": "%",
    "activity (max response)": 6.02
  },
  {
    "MOLECULE": "CC(C)n1ncnc1-c1cn2c(n1)-c1ccc(O[C@@H](C)C(N)=O)cc1OCC2",
    "UNIT TAG": "%",
    "activity (max response)": -4.9
  },
  {
    "MOLECULE": "COCCCOc1cc(C[C@@H](C[C@H](N)[C@@H](O)C[C@H](C(=O)NCC(C)(C)C(N)=O)C(C)C)C(C)C)ccc1OC",
    "UNIT TAG": "%",
    "activity (max response)": 6.05
  }
]

Record summary for c1cncc(CN2CCC(n3ncc4c(N5CCOCC5)nc(-c5ccc6[nH]ccc6c5)nc43)CC2)c1 : reported activity (max response) = -29.6

Record summary for O=C(CCc1ccc(O)cc1)c1c(O)cc(O)cc1O[C@@H]1O[C@H](CO)[C@@H](O)[C@H](O)[C@H]1O : reported activity (max response) = 0.618

Record summary for O=C(NCC(=O)N1CCCC1)Nc1ccc2cnccc2c1 : reported activity (max response) = -10.6

Record summary for O=C(NN1CCCC1)NS(=O)(=O)c1ccc(Cl)cc1 : reported activity (max response) = 2.56

Record summary for CN(C)C(=O)c1cc2cnc(Nc3ccc(N4CCNCC4)cn3)nc2n1C1CCCC1 : reported activity (max response) = -9.21

Record summary for Cc1c(F)cc(C(=O)NC2CC2)cc1-c1ccc(C(=O)NCC(C)(C)C)cn1 : reported activity (max response) = 1.4

Record summary for Cc1cc(-c2ccc(CC(=O)Nc3ccc(-c4cccnc4)cc3)cc2)ccn1 : reported activity (max response) = -19.6

Record summary for CC(C)NCC(O)c1ccc(NS(C)(=O)=O)cc1 (stereo not given) : reported activity (max response) = 2.53

Record summary for COc1cc(C(=O)O)ccc1NC(=O)[C@@H]1N[C@@H](CC(C)(C)C)[C@](C#N)(c2ccc(Cl)cc2F)[C@H]1c1cccc(Cl)c1F : reported activity (max response) = 1.9
